test system: TE10; experiment: relative cell viability vs DMSO, compound alone (fraction); higher = less cytotoxic; settings: 2 µM; 48 h
Counter-ions that a name gives are not always drawn. In all, about 2,000 compounds were measured (“relative cell viability vs DMSO, compound alone”: median about 1.1, lowest 2% from about 0.29 on). Only a selection was taken, and the lowest values are over-represented in it overall.
parameter: relative cell viability

>>> measured("Cc1c(Cl)c(OCC(=O)N2CCN(C)CC2)nc2sc(C(=O)NC3CC3)c(N)c12")
1.04
>>> measured("Cc1sc2c(c1C)C(c1ccc(Cl)cc1)=NC(CC(N)=O)c1nnc(C)n1-2 (configuration not stated)")
0.954
>>> measured("O=S(=O)(F)Cc1ccccc1")
0.978
>>> measured("Cc1c(N)nc(C(CC(N)=O)NCC(N)C(N)=O)nc1C(=O)NC(C(=O)NC(C)C(O)C(C)C(=O)NC(C(=O)NCCc1nc(-c2nc(C(=O)NCCC[S+](C)C)cs2)cs1)C(C)O)C(O[C@@H]1O[C@@H](CO)[C@@H](O)[C@H](O)[C@@H]1O[C@H]1O[C@H](CO)[C@@H](O)[C@H](OC(N)=O)[C@@H]1O)c1cnc[nH]1 (some centres not stated) [Bleomycin Sulfate]")
0.856
>>> measured("Cc1sc2c(c1C)C(c1ccc(Cl)cc1)=N[C@@H](CC(=O)OC(C)(C)C)c1nnc(C)n1-2")
0.901
>>> measured("C[C@@H]1CC[C@@]2(OC1)O[C@H]1C[C@H]3[C@@H]4CC=C5C[C@@H](O[C@@H]6O[C@H](CO)[C@@H](O[C@@H]7O[C@@H](C)[C@H](O)[C@@H](O)[C@H]7O)[C@H](O)[C@H]6O[C@@H]6O[C@@H](C)[C@H](O)[C@@H](O)[C@H]6O)CC[C@]5(C)[C@H]4CC[C@]3(C)[C@H]1[C@@H]2C")
0.189
>>> measured("C[C@H]1CCC/C=C/[C@@H]2C[C@H](O)C[C@H]2[C@H](O)/C=C/C(=O)O1")
0.25

---

system: TE10; assay: relative cell viability vs DMSO, compound alone (fraction); TE10 is an esophageal squamous carcinoma line; higher = less cytotoxic; conditions: 2 µM; 48 h
In all, about 2,000 compounds were measured (“relative cell viability vs DMSO, compound alone”: median about 1.1, lowest 2% from about 0.29 on). The full list was thinned out, with the lowest values kept by preference.
parameter: relative cell viability

>>> measured("O=C(O)CCCc1ccc(N(CCCl)CCCl)cc1 [Chloroambucil]")
1.14
>>> measured("O=C1CCC[C@@H]2[C@H]3CCCN4CCC[C@@H](CN12)[C@@H]34 [(+)-Matrine]")
1.1
>>> measured("Cc1cc(C(C#N)c2ccc(Cl)cc2)c(Cl)cc1NC(=O)c1cc(I)cc(I)c1O (centres undefined) [Closantel]")
1.12
>>> measured("C=CC[C@]1(O)CC[C@H]2[C@@H]3CCC4=CC(=O)CCC4=C3C=C[C@@]21C [Altrenogest]")
1.11
